The measurements presented in this section are drawn from patent EP3305290B1.

test: Cell toxicity (MTT) in PBMCs; settings: human
Measured Endpoint: CC50 (nM)
Numbers only here, please. The scale is nM.

// query CC50 value for entry `COC(=O)[C@H]1[C@@H](O)[C@@]2(O)c3c(OC)cc(O[C@@H]4O[C@@H]([C@H](O)CO)CO[C@H]4OC)cc3O[C@@]2(c2ccc(OC)cc2)[C@@H]1c1ccccc1`
400

---

assay: in vitro; conditions: human, CC50 / cell toxicity
Measured Endpoint: CC50

// query CC50 value for entry `COC(=O)[C@H]1[C@@H](O)[C@@]2(O)c3c(OC)cc(O[C@@H]4O[C@@H]([C@H](O)CO)CO[C@H]4OC)cc3O[C@@]2(c2ccc(OC)cc2)[C@@H]1c1ccccc1`
> 1 µM

---

system: Rhinovirus 1A; experiment: microbe, parasite or virus in culture; type: cell-based, human Rhinovirus 1A (HRV1A); settings: Enterovirus, HeLa
Measured Endpoint: EC50 (nM)
Numbers only here, please. The scale is nM.

// query EC50 value for entry `COC(=O)[C@H]1[C@@H](O)[C@@]2(O)c3c(OC)cc(O[C@@H]4O[C@@H]([C@H](O)CO)CO[C@H]4OC)cc3O[C@@]2(c2ccc(OC)cc2)[C@@H]1c1ccccc1`
400

---

tested on: MERS-CoV; assay: microbe, parasite or virus in culture; type: cell-based, MERS-CoV (EMC/2012); settings: Middle East respiratory syndrome-related coronavirus, Epithelial cell, 48 h
Measured Endpoint: EC50 (nM)
Numbers only here, please. The scale is nM.

// query EC50 value for entry COC(=O)[C@H]1[C@@H](O)[C@@]2(O)c3c(OC)cc(O[C@@H]4O[C@@H]([C@H](O)CO)CO[C@H]4OC)cc3O[C@@]2(c2ccc(OC)cc2)[C@@H]1c1ccccc1 [Silvestrol]
3
